These measurements were taken from patent US5399568A.

Could you please report measured IC50 for the items listed next?
Biological target: dopamine (DA) D-2 receptor (Rattus norvegicus)
Construct: rat striatal membranes were used
Sequence (P61169 whole entry): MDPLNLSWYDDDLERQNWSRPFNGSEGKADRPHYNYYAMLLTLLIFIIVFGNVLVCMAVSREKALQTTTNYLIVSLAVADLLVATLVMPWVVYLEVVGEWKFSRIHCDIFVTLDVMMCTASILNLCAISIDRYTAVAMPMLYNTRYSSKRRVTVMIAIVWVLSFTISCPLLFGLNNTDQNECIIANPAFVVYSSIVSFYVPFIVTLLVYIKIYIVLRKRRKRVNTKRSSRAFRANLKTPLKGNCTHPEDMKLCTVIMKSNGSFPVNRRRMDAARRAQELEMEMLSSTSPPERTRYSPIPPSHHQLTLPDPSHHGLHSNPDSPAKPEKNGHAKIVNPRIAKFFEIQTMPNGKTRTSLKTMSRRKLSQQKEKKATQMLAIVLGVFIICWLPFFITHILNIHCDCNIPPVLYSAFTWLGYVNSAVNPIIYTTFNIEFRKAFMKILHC
Assay: Test A: antagonism of [^3 H]-spiperone binding (D-2 receptor binding assay, rat striatal membranes)
Details: 0.5 nM [^3 H] spiperone, 40 nM ketanserin, pH 7.7, 37° C., 15 min, typical values, read-out: IC50 (drug concentration which produced a 50% displacement of [^3 H] spiperone)
I only need the number, in nM, no unit after it.

Query: Look up IC50 for this compound: COc1ccc(C(O)C2CCN(CC34CC(c5ccccc53)c3ccc(Cl)cc34)CC2)cc1 (racemic)
Response: 15

Query: Entry to check: COc1cccc(C(O)C2CCN(CC34CC(c5ccccc53)c3ccc(Cl)cc34)CC2)c1 (racemic)
Response: 84

Query: OC(c1cccnc1)C1CCN(CC23CC(c4ccccc42)c2ccccc23)CC1 (stereo not drawn) , same question.
Response: 103
